// data source = PubChem BioAssay (NCI)

Test system: NCI/ADR-RES ovarian
assay procedure: NCI tumour cell line growth inhibition, 48 h; in the data active = GI50 below about 0.43 µM; inactive = the rest
Outcomes: active, inactive

INSERT INTO assay_data (compound, answer_label) VALUES
  ('O=C(Cn1c[n+](CC(=O)c2ccc(-c3ccccc3)cc2)c2ccccc21)Nc1cccc2cccnc12', 'inactive'),
  ('O=C1OCC2=C1C(c1cccc(Br)c1)c1cc3c(cc1N2CCO)CCC3 (stereo not given)', 'active'),
  ('C#C[C@]1(O)CCC2C3CCc4cc(O)ccc4C3CC[C@@]21C (stereo not given in full)', 'inactive'),
  ('O=C(CSc1nc2ccccc2nc1-c1ccccc1)Nc1ccc(F)cc1', 'inactive'),
  ('O=C(N[C@@H](c1ccc(Cl)c(Cl)c1)C1CNC1)c1ccc2cnccc2c1', 'inactive'),
  ('C[C@@H]1CC[C@@H]2[C@@H]1[C@H](OC(=O)/C=C/c1ccccc1)[C@]1(C3CCCCC3)C[C@@H](OC(=O)CO)[C@@]2(C)O1', 'inactive'),
  ('COc1ccc(C(=O)/C=C/c2cc(-c3cc(OC)c(OC)c(OC)c3)n[nH]2)cc1OC', 'inactive'),
  ('COc1ccc(Nc2nnc(-c3cc(O)ccc3O)s2)cc1', 'inactive'),
  ('CCC(/C=C/C1OC(=O)C=CC1C)=C\C(C)C/C=C/C(C)=C/C(C)C(=O)C(C)C(O)C(C)C/C(C)=C/C(=O)O (stereo not given)', 'inactive'),
  ('C=CCn1c(C)nc2ccc(Nc3nc(Nc4ccc5nc(C)n(CC=C)c5c4)c4ccccc4n3)cc21', 'inactive');
